Tested on: OVCAR-4
Assay: NCI tumour cell line growth inhibition, 48 h
Activity calls are given as the source filed them. Rule as the data show it: active = GI50 up to about 1.1 µM and inactive = higher.
REPORTED_PROPERTY: GI50

Example entries and their recorded answers appear below.
## Input Consider the compound COc1ncnc2c(NC3OC(CO)C(O)C3O)ncnc12 (stereo not given) and give its measured GI50.
## Output 0.713 µM (active)

## Input Consider the compound CS/C(c1ccccc1)=[N+](/C)[O-] and give its measured GI50.
## Output > 100 µM (inactive)

## Input Consider the compound C[C@]12CC[C@H]3[C@@H](CC[C@]4(O)C[C@@H](O)CC[C@]34/C=N/O)[C@@]1(O)CC[C@@H]2C1=COC(=O)C1 and give its measured GI50.
## Output 0.0608 µM (active)

## Input Consider the compound CCC1(C(=O)OC(C)(C)C)OC12C(C)CCCC2C (stereo not given) and give its measured GI50.
## Output 28.1 µM (inactive)

Proceeding to the next compound to report its GI50.
## Input Consider the compound Cc1ccc2nc(SCC(=O)N/N=C3\C(=O)Nc4ccccc43)n(-c3ccccc3)c(=O)c2c1 and give its measured GI50.
## Output 13.2 µM (inactive)

---

System: UO-31
Assay: NCI tumour cell line growth inhibition, 48 h
The source made the active and inactive calls. No stated cut-off is given here; in the data, active = GI50 up to about 1.1 µM and inactive = higher.
Reply using exactly one outcome from active, inactive

Example entries begin here.
## Input Write down the call the test reported for this compound. Item: COCn1c(C)c(C)c2c(=O)oc(C)nc21
## Output inactive

## Input Write down the call the test reported for this compound. Item: CS(=O)(=O)N1CC(CCl)c2ccc(NCCN)cc21 (stereo not given)
## Output inactive

## Input Write down the call the test reported for this compound. Item: CC1=CC(C)(C)N=C2SC(c3ccc(N)cc3)=NN12
## Output inactive

## Input Write down the call the test reported for this compound. Item: Cc1cc(S(=O)(=O)[N-]/C(=N/S(=O)(=O)c2ccc(Cl)cc2)[n+]2ccc(N(C)C)cc2)c(S)cc1Cl
## Output inactive

## Input Write down the call the test reported for this compound. Item: O=C(Cc1nc2ccccc2o1)C(=O)Nc1cccc(Cl)c1
## Output inactive

## Input Write down the call the test reported for this compound. Item: CSc1cc(Cl)c(C)cc1S(=O)(=O)NC(=O)Nc1ccc(Cl)cc1
## Output inactive

Could you now consider this next compound?
## Input Write down the call the test reported for this compound. Item: CC(=O)OCC1OC(On2ccccc2=S)C(OC(C)=O)C(OC(C)=O)C1OC(C)=O (stereo not given)
## Output inactive

---

Tested on: SF-295
Experiment: NCI tumour cell line growth inhibition, 48 h
Active and inactive are the calls of the source. Rule as the data show it: active = GI50 up to about 1.1 µM and inactive = higher.
REPORTED_PROPERTY: GI50

Example entries and their recorded answers appear below.
## Input Consider the molecule COC(=O)C1=Cc2cc3c(cc2[C@H](c2ccc4c(c2)OCO4)C1C(=O)OC)OCO3 (stereo not given in full) and give its measured GI50.
## Output 38.5 µM (inactive)

## Input Consider the molecule COC1CCC(=O)N1CN(C(C)=O)c1ccc(C)cc1 (stereo not given) and give its measured GI50.
## Output > 100 µM (inactive)

## Input Consider the molecule COC(=O)C[C@H]1[C@]2(C)C3=C(C)[C@H](c4ccoc4)CC3O[C@@H]2[C@@H]2OC(=O)[C@]3(C)CCC(=O)[C@@]1(C)[C@@H]23 (stereo not given in full) and give its measured GI50.
## Output > 100 µM (inactive)

## Input Consider the molecule Oc1nc2c(c(-c3cccc(Cl)c3)n1)COC/C2=C\c1cccc(Cl)c1 and give its measured GI50.
## Output > 100 µM (inactive)

Proceeding to the next molecule to report its GI50.
## Input Consider the molecule CCN1C(NCCO)=NS(=O)(=O)c2ccccc21 and give its measured GI50.
## Output > 100 µM (inactive)
